Assign n50e to each entry below.
target: Hemoglobin HbA (Homo sapiens) (UniProt P69905+P68871); assay: The Hill coefficient at 50% saturation (n50) in the presence of effector.; assay type: protein-complex assay
Sequence (P68871 2-147 partner limits assumed): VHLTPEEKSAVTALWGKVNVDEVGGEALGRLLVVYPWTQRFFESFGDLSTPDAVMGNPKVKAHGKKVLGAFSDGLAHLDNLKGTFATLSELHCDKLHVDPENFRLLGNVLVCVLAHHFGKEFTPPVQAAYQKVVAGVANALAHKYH
Sequence (P69905 2-142 limits assumed): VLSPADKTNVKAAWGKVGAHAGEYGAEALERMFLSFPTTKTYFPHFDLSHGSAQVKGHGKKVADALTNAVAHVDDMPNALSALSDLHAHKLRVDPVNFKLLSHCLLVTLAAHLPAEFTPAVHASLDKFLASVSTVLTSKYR
Note: the reply should be a number with no unit written.

Provide one value: measured n50e of CC[C@@H](C)[C@@H](NC(=O)C1(Oc2ccc(CC(=O)Nc3cc(C)cc(C)c3)cc2)CCCC1)C(=O)O
2.3

Provide one value: measured n50e of Cc1cc(C)cc(NC(=O)Cc2ccc(OC3(C(=O)O)CCCC3)cc2)c1
1.7

Provide one value: measured n50e of Cc1cc(C)cc(NC(=O)Cc2ccc(OC3(C(=O)NCC(=O)O)CCCC3)cc2)c1
2.1

Provide one value: measured n50e of Cc1cc(C)cc(NC(=O)Cc2ccc(OC3(C(=O)N[C@H](C(=O)O)C(C)C)CCCC3)cc2)c1
2

Provide one value: measured n50e of Cc1cc(C)cc(NC(=O)Cc2ccc(OC3(C(=O)N[C@H](CC(C)C)C(=O)O)CCCC3)cc2)c1
2.3

Provide one value: measured n50e of Cc1cc(C)cc(NC(=O)Cc2ccc(OC3(C(=O)N[C@H](C)C(=O)O)CCCC3)cc2)c1
1.7

Provide one value: measured n50e of Cc1cc(C)cc(NC(=O)Cc2ccc(OC3(C(=O)N[C@H](CSCc4ccccc4)C(=O)O)CCCC3)cc2)c1
2.3

Provide one value: measured n50e of Cc1cc(C)cc(NC(=O)Cc2ccc(OC3(C(=O)N[C@H](CCC(=O)O)C(=O)O)CCCC3)cc2)c1
2

Provide one value: measured n50e of Cc1cc(C)cc(NC(=O)Cc2ccc(OC3(C(=O)N[C@@H](Cc4ccc5[nH]ccc5c4)C(=O)O)CCCC3)cc2)c1
2

Provide one value: measured n50e of Cc1cc(C)cc(NC(=O)Cc2ccc(OC3(C(=O)N[C@@H](CCCCNC(=O)OCc4ccccc4)C(=O)O)CCCC3)cc2)c1
2.1

Provide one value: measured n50e of Cc1cc(C)cc(NC(=O)Cc2ccc(OC3(C(=O)N[C@H](Cc4ccccc4)C(=O)O)CCCC3)cc2)c1
1.9

Provide one value: measured n50e of Cc1cc(C)cc(NC(=O)Cc2ccc(OC(C)(C)C(=O)O)cc2)c1
1.5

Provide one value: measured n50e of Cc1cc(C)cc(NC(=O)Cc2ccc(OC3(C(=O)N[C@@H](CCCCN)C(=O)O)CCCC3)cc2)c1
2.7

Provide one value: measured n50e of Cc1cc(C)cc(NC(=O)Cc2ccc(OC3(C(=O)N[C@H](CC(=O)O)C(=O)O)CCCC3)cc2)c1
1.9

Provide one value: measured n50e of Cc1cc(C)cc(NC(=O)Cc2ccc(OC3(C(=O)N[C@H](CCCCNC(=O)OCc4ccccc4)C(=O)O)CCCC3)cc2)c1
2.5

Provide one value: measured n50e of Cc1cc(C)cc(NC(=O)Cc2ccc(OC3(C(=O)N[C@@H](Cc4ccccc4)C(=O)O)CCCC3)cc2)c1
1.8

Provide one value: measured n50e of CSCC[C@H](NC(=O)C1(Oc2ccc(CC(=O)Nc3cc(C)cc(C)c3)cc2)CCCC1)C(=O)O
2.3

* * *

Assign Delta P50 to each entry below.
biological target: Hemoglobin HbA (Homo sapiens) (UniProt P69905+P68871); assay: The difference in the partial pressure of oxygen at 50% saturated Hb; type: functional
Note: the reply should be a number with no unit written.

Provide one value: measured Delta P50 of Cc1cc(C)cc(NC(=O)Cc2ccc(OC3(C(=O)N[C@@H](CCCCNC(=O)OCc4ccccc4)C(=O)O)CCCC3)cc2)c1
14

Provide one value: measured Delta P50 of Cc1cc(C)cc(NC(=O)Cc2ccc(OC3(C(=O)N[C@H](CO)C(=O)O)CCCC3)cc2)c1
5.4

Provide one value: measured Delta P50 of Cc1cc(C)cc(NC(=O)Cc2ccc(OC3(C(=O)N4CCC[C@H]4C(=O)O)CCCC3)cc2)c1
17

Provide one value: measured Delta P50 of Cc1cc(C)cc(NC(=O)Cc2ccc(OC3(C(=O)O)CCCC3)cc2)c1
42.3

* * *

target: Hemoglobin HbA (Homo sapiens) (UniProt P69905+P68871); assay: The difference in the partial pressure of oxygen at 50% saturated Hb; format: functional
measuredAttribute: Delta P50

Provide one value: measured Delta P50 of Cc1cc(C)cc(NC(=O)Cc2ccc(OC3(C(=O)N[C@H](CSCc4ccccc4)C(=O)O)CCCC3)cc2)c1
7.2

Provide one value: measured Delta P50 of CSCC[C@H](NC(=O)C1(Oc2ccc(CC(=O)Nc3cc(C)cc(C)c3)cc2)CCCC1)C(=O)O
26.6

Provide one value: measured Delta P50 of Cc1cc(C)cc(NC(=O)Cc2ccc(OC3(C(=O)N[C@@H](C)C(=O)O)CCCC3)cc2)c1
17.6

Provide one value: measured Delta P50 of CSCC[C@@H](NC(=O)C1(Oc2ccc(CC(=O)Nc3cc(C)cc(C)c3)cc2)CCCC1)C(=O)O
20.6

Provide one value: measured Delta P50 of Cc1cc(C)cc(NC(=O)Cc2ccc(OC3(C(=O)N[C@@H](C(=O)O)C(C)C)CCCC3)cc2)c1
30.2

Provide one value: measured Delta P50 of Cc1cc(C)cc(NC(=O)Cc2ccc(OC3(C(=O)NCC(=O)O)CCCC3)cc2)c1
25.1

Provide one value: measured Delta P50 of Cc1cc(C)cc(NC(=O)Cc2ccc(OC3(C(=O)N[C@H](C(=O)O)C(C)C)CCCC3)cc2)c1
28.6

Provide one value: measured Delta P50 of Cc1cc(C)cc(NC(=O)Cc2ccc(OC3(C(=O)N[C@H](CCC(=O)O)C(=O)O)CCCC3)cc2)c1
22.5

* * *

target: Hemoglobin HbA (Homo sapiens) (UniProt P69905+P68871); assay: Ratio of […] (P50 control value with no effector present 5.0 mmHg, in case of DMSO is 4.7 mmHg ); format: functional
measuredAttribute: P50e / P50c
Note: the reply should be a number with no unit written.

Provide one value: measured P50e / P50c of Cc1cc(C)cc(NC(=O)Cc2ccc(OC3(C(=O)NCC(=O)O)CCCC3)cc2)c1
2.4

Provide one value: measured P50e / P50c of Cc1cc(C)cc(NC(=O)Cc2ccc(OC3(C(=O)N[C@H](C(=O)O)C(C)C)CCCC3)cc2)c1
2.6

Provide one value: measured P50e / P50c of Cc1cc(C)cc(NC(=O)Cc2ccc(OC3(C(=O)N[C@H](CCCCNC(=O)OCc4ccccc4)C(=O)O)CCCC3)cc2)c1
4.5

Provide one value: measured P50e / P50c of Cc1cc(C)cc(NC(=O)Cc2ccc(OC3(C(=O)N[C@@H](CCCCNC(=O)OCc4ccccc4)C(=O)O)CCCC3)cc2)c1
5.9

Provide one value: measured P50e / P50c of Cc1cc(C)cc(NC(=O)Cc2ccc(OC3(C(=O)N[C@@H](Cc4ccc5[nH]ccc5c4)C(=O)O)CCCC3)cc2)c1
7.4

Provide one value: measured P50e / P50c of Cc1cc(C)cc(NC(=O)Cc2ccc(OC3(C(=O)N[C@@H](CC(C)C)C(=O)O)CCCC3)cc2)c1
4.3

Provide one value: measured P50e / P50c of Cc1cc(C)cc(NC(=O)Cc2ccc(OC3(C(=O)N[C@@H](CCCCN)C(=O)O)CCCC3)cc2)c1
1.2

Provide one value: measured P50e / P50c of CSCC[C@@H](NC(=O)C1(Oc2ccc(CC(=O)Nc3cc(C)cc(C)c3)cc2)CCCC1)C(=O)O
1.9

Provide one value: measured P50e / P50c of Cc1cc(C)cc(NC(=O)Cc2ccc(OC3(C(=O)N[C@@H](C(=O)O)C(C)C)CCCC3)cc2)c1
2.8

Provide one value: measured P50e / P50c of Cc1cc(C)cc(NC(=O)Cc2ccc(OC3(C(=O)N[C@H](CCC(=O)O)C(=O)O)CCCC3)cc2)c1
3.4

Provide one value: measured P50e / P50c of Cc1cc(C)cc(NC(=O)Cc2ccc(OC3(C(=O)N[C@H](CC(C)C)C(=O)O)CCCC3)cc2)c1
1.9

Provide one value: measured P50e / P50c of CC[C@@H](C)[C@@H](NC(=O)C1(Oc2ccc(CC(=O)Nc3cc(C)cc(C)c3)cc2)CCCC1)C(=O)O
2.5

Provide one value: measured P50e / P50c of Cc1cc(C)cc(NC(=O)Cc2ccc(OC3(C(=O)N[C@@H](C)C(=O)O)CCCC3)cc2)c1
2.1

Provide one value: measured P50e / P50c of Cc1cc(C)cc(NC(=O)Cc2ccc(OC3(C(=O)N[C@H](CCCCN)C(=O)O)CCCC3)cc2)c1
1.6

Provide one value: measured P50e / P50c of Cc1cc(C)cc(NC(=O)Cc2ccc(OC3(C(=O)N4CCC[C@H]4C(=O)O)CCCC3)cc2)c1
2.7

Provide one value: measured P50e / P50c of Cc1cc(C)cc(NC(=O)Cc2ccc(OC(C)(C)C(=O)O)cc2)c1
4.7

Provide one value: measured P50e / P50c of Cc1cc(C)cc(NC(=O)Cc2ccc(OC3(C(=O)N[C@H](Cc4ccccc4)C(=O)O)CCCC3)cc2)c1
1.7

Provide one value: measured P50e / P50c of Cc1cc(C)cc(NC(=O)Cc2ccc(OC3(C(=O)N[C@H](CC(=O)O)C(=O)O)CCCC3)cc2)c1
3.2

Provide one value: measured P50e / P50c of Cc1cc(C)cc(NC(=O)Cc2ccc(OC3(C(=O)N[C@@H](C(=O)O)C(C)O)CCCC3)cc2)c1 (stereo partly drawn)
2.9

Provide one value: measured P50e / P50c of Cc1cc(C)cc(NC(=O)Cc2ccc(OC3(C(=O)N[C@@H](CO)C(=O)O)CCCC3)cc2)c1
3.4

Provide one value: measured P50e / P50c of CSCC[C@H](NC(=O)C1(Oc2ccc(CC(=O)Nc3cc(C)cc(C)c3)cc2)CCCC1)C(=O)O
3.6

Provide one value: measured P50e / P50c of Cc1cc(C)cc(NC(=O)Cc2ccc(OC3(C(=O)N[C@@H](Cc4ccccc4)C(=O)O)CCCC3)cc2)c1
2.6

Provide one value: measured P50e / P50c of Cc1cc(C)cc(NC(=O)Cc2ccc(OC3(C(=O)O)CCCC3)cc2)c1
5.1

Provide one value: measured P50e / P50c of Cc1cc(C)cc(NC(=O)Cc2ccc(OC3(C(=O)N[C@H](Cc4ccc5[nH]ccc5c4)C(=O)O)CCCC3)cc2)c1
7.4

Provide one value: measured P50e / P50c of Cc1cc(C)cc(NC(=O)Cc2ccc(OC3(C(=O)N[C@H](Cc4ccc(O)cc4)C(=O)O)CCCC3)cc2)c1
9.7

Provide one value: measured P50e / P50c of Cc1cc(C)cc(NC(=O)Cc2ccc(OC3(C(=O)N[C@H](CO)C(=O)O)CCCC3)cc2)c1
2.3

Provide one value: measured P50e / P50c of Cc1cc(C)cc(NC(=O)Cc2ccc(OC3(C(=O)N[C@H](C)C(=O)O)CCCC3)cc2)c1
2.8

Provide one value: measured P50e / P50c of Cc1cc(C)cc(NC(=O)Cc2ccc(OC3(C(=O)N[C@H](CSCc4ccccc4)C(=O)O)CCCC3)cc2)c1
8.6
